# Tested on: IL-17A
# Procedure details: IL-17 release from differentiated primary human T-cells (IL-17A HTRF assay)
# Assay type: cell-based
# Assay conditions: primary human CD4+ T cells differentiated into Th17 cells, 45-hour incubation, IL-17A in supernatant; read-out: hIL17 IC50
# Method: C. IL-17 Release from Differentiated Primary Human T-Cells and Cell Viability Primary human cryopreserved CD4+ T Cells (Lonza) were thawed according to the manufacturer's recommendations and plated either in Lymphocyte Growth Medium-3 (LGM-3) or X-VIVO 20 media (Lonza) in 96-well tissue culture plates at a density of ˜2×10^5 cells per well, and allowed to recover for approximately 4 hours at 37° C. with 5% CO2 in a humidified atmosphere. […]
Property name: IC50 (nM)
Note: unit nM is implicit; provide only the numeric part.

Substance smiles	Measurement target	IC50 [nM]
CC(C)c1ccc(-c2nc3c(n2Cc2ccc(Cl)cc2)CC[C@@H]2[C@@H](C)C(=O)C(C#N)=C[C@@]32C)cc1	IL-17A	33

Look up IC50: `C[C@H]1C(=O)C(C#N)=C[C@@]2(C)c3c(c(-c4ccccc4)nn3-c3ccc(OC(F)(F)F)cc3)CC[C@H]12` 32

Would you mind doing `C[C@H]1C(=O)C(C#N)=C[C@@]2(C)c3nc(-c4cccc(-c5cnn(C)c5)c4)n(-c4cccc(F)c4)c3CC[C@H]12` as well? 129

Would you mind doing `Cc1ccc(-n2nc3c(c2-c2ccccc2)CC[C@@H]2[C@@H](C)C(=O)C(C#N)=C[C@@]32C)cc1` as well? 158

Reference source: patent US11993574B2
